The reported numbers originate from paper PMC12040169.

viability at 28.5 h, 10 µM by entry:
Experiment: in vitro
Details: human, hela cells, % viability
endpoint: viability at 28.5 h, 10 µM (%)

>>> df
                                   molecule                    endpoint  uom  experimental_result
0  CCc1nc(C2CCCN2c2ncc(C#N)cc2Cl)no1 (stereo not shown)  viability at 28.5 h, 10 µM    %                 91.1
1  COc1c(C)cc(Br)cc1C(=O)Nc1ccccc1-c1nc2ccccc2s1  viability at 28.5 h, 10 µM    %                 99.8
2             CCOc1ccc(S(=O)(=O)NCCOC)cc1Cl  viability at 28.5 h, 10 µM    %                 91.5
3  O=C(N[C@@H]1CCOC[C@H]1Oc1ccc(CO)cc1)c1ccc(F)cc1  viability at 28.5 h, 10 µM    %                  112
4    N[C@@H]1CCCN(Cc2ccncc2)[C@H]1c1ccccc1F  viability at 28.5 h, 10 µM    %                 88.4
5     N#CCCN(C(=O)NCc1c(Cl)cccc1Cl)C1CCCCC1  viability at 28.5 h, 10 µM    %                   88
6  COC(=O)[C@@H]1Cc2ncn(C)c2CN1S(=O)(=O)c1cccs1  viability at 28.5 h, 10 µM    %                  104
7  COc1cc(C(=O)N2CCC3(CC2)CC(=O)c2cc(CN4CCN(C)CC4)ccc2O3)cc(OC)c1C  viability at 28.5 h, 10 µM    %                 94.6
8  O=C(N[C@H]1CCN2C(=O)[C@@H](Cc3ccccc3)NC(=O)[C@H]12)c1cnccn1  viability at 28.5 h, 10 µM    %                 83.6
9  O=[N+]([O-])c1cc(-c2nc(-c3cccs3)c(-c3cccs3)[nH]2)ccc1Br  viability at 28.5 h, 10 µM    %                  102

---

Test system: C. trachomatis L2/434/Bu expressing GFP (CTL2-GFP)
Construct: L2/434/Bu GFP intracellular growth in HeLa cells
Assay: microbe, parasite or virus in culture
Parameters: C. trachomatis total inclusion area by high-content imaging, normalised to DMSO
Details: Chlamydia trachomatis, HeLa, 28.5 h; total inclusion area; read-out: % of control remaining
activity at 10 µM by entry:
endpoint: activity at 10 µM (%)

In [3]: df
Out[3]:
                                   compound                                       tgt  experimental_result
0  CN1CCCN(c2cc(C(F)(F)F)c3scc(C(=O)NCc4cccc(F)c4F)c3n2)CC1 [CBK036386T]  C. trachomatis L2/434/Bu expressing GFP (CTL2-GFP)                 46.9
1  O=C(NCCNCCNC(=O)C1(c2ccccc2)CCCC1)C1(c2ccccc2)CCCC1  C. trachomatis L2/434/Bu expressing GFP (CTL2-GFP)                 8.64
2  CCc1nnc(NS(=O)(=O)c2ccc(N/C=C3\C(=O)N(c4ccc(Cl)cc4)N=C3C)cc2)s1  C. trachomatis L2/434/Bu expressing GFP (CTL2-GFP)                   27
3  CC(=O)NC[C@H]1CN(c2ccc(C3=CC[S+]([O-])CC3)c(F)c2)C(=O)O1 (some centres unmarked)  C. trachomatis L2/434/Bu expressing GFP (CTL2-GFP)                 1.05
4  Cc1cc(C)c2c(N)c(C(=O)Nc3ccc(Br)cc3)sc2n1  C. trachomatis L2/434/Bu expressing GFP (CTL2-GFP)                   91
5  Cc1cc(Br)ccc1C(=O)NCCc1c[nH]c2ccc(Cl)cc12  C. trachomatis L2/434/Bu expressing GFP (CTL2-GFP)                 47.4
6  O=[N+]([O-])c1cc2c(cc1C(Nc1ccccn1)c1cc(Cl)c3cccnc3c1O)OCO2 (centres unmarked)  C. trachomatis L2/434/Bu expressing GFP (CTL2-GFP)                 25.9
7  CC(Cc1nc(-c2nccn2C)cs1)n1cc(Cl)cn1 (centres unmarked)  C. trachomatis L2/434/Bu expressing GFP (CTL2-GFP)                  7.1
